# test-target: the molecule itself
# assay-comment: AUC
readout-type: stoichiometry N
Keep it simple and answer with nothing but the number.

mouse nectin-2 ectodomain (D1-D3) (domain or fragment, natively glycosylated) QDVRVRVLPEVRGRLGGTVELPCHLLPPTTERVSQVTWQRLDGTVVAAFHPSFGVDFPNSQFSKDRLSFVRARPETNADLRDATLAFRGLRVEDEGNYTCEFATFPNGTRRGVTWLRVIAQPENHAEAQEVTIGPQSVAVARCVSTGGRPPARITWISSLGGEAKDTQEPGIQAGTVTIISRYSLVPVGRADGVKVTCRVEHESFEEPILLPVTLSVRYPPEVSISGYDDNWYLGRSEAILTCDVRSNPEPTDYDWSTTSGVFPASAVAQGSQLLVHSVDRMVNTTFICTATNAVGTGRAEQVILVRESP
2

With those in mind, consider the next protein.
What measured stoichiometry N goes with mouse nectin-4 ectodomain (D1-D3) (domain or fragment, natively glycosylated) GELETSDVVTVVLGQDAKLPCFYRGDPDEQVGQVAWARVDPNEGIRELALLHSKYGLHVNPAYEDRVEQPPPPRDPLDGSVLLRNAVQADEGEYECRVSTFPAGSFQARMRLRVLVPPLPSLNPGPPLEEGQGLTLAASCTAEGSPAPSVTWDTEVKGTQSSRSFTHPRSAAVTSEFHLVPSRSMNGQPLTCVVSHPGLLQDRRITHTLQVAFLAEASVRGLEDQNLWQVGREGATLKCLSEGQPPPKYNWTRLDGPLPSGVRVKGDTLGFPPLTTEHSGVYVCHVSNELSSRDSQVTVEVLDPEDPG ?
2
